# target-system: SARS-CoV-2 full length spike protein (wild type) (SARS-CoV-2, UniProt P0DTC2 14-1208)
experimental-readout: median fluorescence intensity fold over isotype (fold over isotype control)
The answer is to be given in fold over isotype control; state only the numeric part.

Using known records, supply median fluorescence intensity fold over isotype for antibody 326 (antibody, V domains shown) VH: QITLKESGPTLVKPTQTLTLTCTFSGFSLNTSGVGVGWIRQPPGKALEWLSLIFWNDDKRYSPSLRSRLTITKDTSKNQVVLTMTNMDPVDTATYFCAHRNSGWSLKFDSWGQGSLVTVSA VL: DIQMTQSPSSVSASVGDRVTITCRARQGISSWLVWYQQKPGKAPKLLIFGASSLQSGVPSRFNASGTGTEFTLTISSLQPEDFATYYCQQADSFPITFGQGTRLEIK
193

Using known records, supply median fluorescence intensity fold over isotype for antibody 320 (antibody, V domains shown) VH: QVQLVQSGAEVKKPGASVKVSCKASGYTFTSYGISWVRQAPGQGLEWMGWISAYNGNTNYAQKLQGRVTMTTDTSTRTAYMELRSLRSDDTAVYYCARVGCYYDSSGYSCAENFQHWGQGTLVTVSS VL: QSVLTQPPSVSGAPGQRVTISCTGSSSNIGAGYDVHWYQQLPGTAPKLLIYGNSNRPSGVPDRFSGSKSGTSASLAITGLQAEDEADYYCQSYDSSLSALFGGGTKLTVL
1200

Using known records, supply median fluorescence intensity fold over isotype for antibody 339 (antibody, V domains shown) V domain 1: QITLKESGPTLVKPTETLTLTCSFSGFSLTRTGEAAGWIRQAPGRALEWVTVIFWDDDKRYSPSLQSRLTVTKDTSKNQVVLTMTNVARFDTATYFCWAMGGPGKEYFGQGTQVAVSS V domain 2: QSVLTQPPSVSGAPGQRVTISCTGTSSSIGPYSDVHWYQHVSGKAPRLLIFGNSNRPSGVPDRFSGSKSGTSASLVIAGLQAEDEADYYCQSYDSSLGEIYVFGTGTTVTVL
874

Using known records, supply median fluorescence intensity fold over isotype for antibody 345 (antibody, V domains shown) VH: QVQLQESGPGLVKPSQTLSLTCTVSGGSISSGDYYWSWIRQPPGKGLEWIGYIYYSGSTYYNPSLKSRVTISVDTSKNQFSLKLSSVTAADTAVYYCARVGMVDNWNFEGNWFDPWGQGTLVTVSS VL: QSALTQPRSVSGSPGQSVTISCTGTSSDVGGYNYVSWYQQHPGKAPKLMIYDVSKRPSGVPDRFSGSKSGNTASLTISGLQAEDEADYYCCSYAGSVVFGGGTKLTVL
562

Using known records, supply median fluorescence intensity fold over isotype for antibody 323 (antibody, V domains shown) VH: QVQLVQSGAEVKKPGASVKVSCKVSGYTLTELSMHWVRQAPGKGLEWMGGFDPEDGETIYAQKFQGRVTMTEDTSTDTAYMELSSLRSEDTAVYYCATSTIFAPGGWFDPWGQGTLVTVSS VL: QSALTQPASVSGSPGQSITISCTGTSSDVGSYNLVSWYQQHPGKAPKLMIYEVSKRPSGVSNRFSGSKSGNTASLTISGLQAEDEADYYCCSYAGSTHYVFGTGTKVTVL
994
